The measured values listed here are drawn from PubChem BioAssay (NCI).

# Test system: M14 melanoma
# Test: NCI-60 one-dose screen, 48 h
# Applied Conditions: 10 µM unless noted
This is part of a sample that, as a whole, favours compounds with a hit. Of some 83,000 tested, about 20% had one in any assay. Calls of active or inactive are those of the source. Rule for the calls: active = growth percent below 10; inactive = the rest.
Outcomes: 1 = active, 0 = inactive

> print(dat)
                                    molecule  class
 1  O=C(Nc1cccc2[nH]c(C(F)(F)F)nc12)c1ccc(F)cc1      0
 2  Cc1c(Cc2ccccc2)c(=O)oc2c(C)c(OCC(=O)n3nc(C#N)cc3N)ccc12      0
 3  COc1cc([C@@H]2c3cc4c(cc3[C@H](O)[C@H]3COC[C@@H]23)OCO4)cc(OC)c1OC      0
 4  COC(=O)[C@H](Cc1cn(C)cn1)NC(=O)[C@H](CC(=O)OCc1ccccc1)NC(=O)Nc1cc(C(F)(F)F)cc(C(F)(F)F)c1      1
 5      Clc1ccc(N/N=C(/c2ccccc2)c2ccccn2)nc1      0
 6                     CC(C)C(=O)c1ccc(Cl)s1      0
 7            O=C(/C=C/c1ccc(Br)cc1)c1ccccc1      0
 8  COc1ccccc1C(=O)Nc1cccc(-c2cc(=O)c3c(OC)c(OC)c(OC)cc3o2)c1      0
 9  CCCNC(=O)Oc1ccc(/C(=C(/C)Cc2ccc(OC)cc2)c2ccc(OCCN3CCCCC3)cc2)cc1      0
10  COc1cc(-c2nn(-c3ccc(NC(=O)c4ccc(Cl)c(Cl)c4)cc3)cc2-c2ccncc2)ccc1Cl      0
11              Br/C(=N\Nc1nn[nH]n1)c1ccccc1      0
12             C/C(=N\Nc1ccc(Cl)cn1)c1ccccn1      1
13  O=C(/C=C1\C(=O)N(Cc2ccc([N+](=O)[O-])cc2)c2ccccc21)c1ccc(OCCN2CCCCC2)cc1      1
14                Brc1ccc(-c2nc3ccccc3s2)cc1      0
15          CC(O)C(N)=O (stereo unspecified)      0
16  O=C1C(=O)c2ccccc2C(O)=C1CCCc1ccc(Oc2ccccc2)cc1      0
17  COc1cc(-c2nn(-c3ccc(NC(=O)Nc4cc(C(F)(F)F)cc(C(F)(F)F)c4)cc3)cc2-c2ccncc2)ccc1Cl      1
18  C/C=C(/C)C(=O)OC1C=C(CO)C(=O)C(OC(=O)C2(C)OC2C)C1C(C)C (stereo unspecified)      1
19               CCOc1ccc2nc3ccc(Cl)cc3nc2c1      1
20  CCCNC(=O)Oc1ccc(/C(=C(/C)Cc2ccc(OC)cc2)c2ccc(OCCN3CCCC3)cc2)cc1      1
21  CCn1cnc(C[C@H](NC(=O)[C@@H](NC(=O)Nc2cc(C(F)(F)F)cc(C(F)(F)F)c2)C(C)C)C(=O)OC)c1      1
22  COc1cc2ncnc(-n3ncc4cc(NC(=O)Nc5ccc(Cl)c(Cl)c5)ccc43)c2cc1OC      1
23                     Cc1ccc2c(c1)C(=O)CCS2      0
24  COC(=O)C1CC(=O)N(C(=O)Nc2ccc(Cl)cc2Cl)C1 (stereo unspecified)      0
25  O=C(Nc1cccc(Cn2c(=O)[nH]c3ccc(Oc4ncccn4)cc3c2=O)c1)c1ccc(Cl)cc1      0
26  COc1cc(N2C(=O)C=CC2=O)ccc1N1C(=O)C=CC1=O      0
27  COC(=O)c1ccc2[nH]c(O)c(C(=Nc3ccc(N(C)C(=O)CN4CCN(C)CC4)cc3)c3ccc4c(c3)OCO4)c2c1      0
28  O=C(Nc1ccc(-n2cc(-c3ccncc3)c(-c3ccc(Cl)c(O)c3)n2)cc1)c1cc(Cl)cc(Cl)c1      1
29          Nc1nc2cc(O)ccc2n2cc3c(F)cccc3c12      0
30  Cc1nc(NC(=S)Nc2ccc(F)cc2)sc1C(=O)NNC(=S)Nc1ccc(F)cc1      0
31  COc1cc2c(c3c1c(=O)c1cccc(F)c1n3C)C=CC(C)(C)O2      0
32  OCCN1CCN(CC/C=C2/c3ccccc3Sc3ccc(C(F)(F)F)cc32)CC1      0
33  CCCCCCNc1nc(N2CCOCC2)c2[nH]c(NCCCCCC)nc2n1      1
34              CC(=O)Nc1ccc(S(=O)(=O)Cl)cc1      0
35  CC1Cc2cc(F)ccc2-n2cccc21 (stereo unspecified)      0
36  CCN(CC)c1ccc2nc3ccc(N=Nc4ccc(O)cc4)cc3[n+](-c3ccccc3)c2c1      0
37      COC(=O)c1cc(=O)nc(N/N=C/c2ccccc2O)s1      0
38  O=C(Nc1ccc(Cl)c(Cl)c1)O/N=C\c1c(Cl)ccc([N+](=O)[O-])c1Cl      0
39  C/C=C/C/C=C/[C@H](C)C[C@H](O)[C@@H]1C[C@@H]2O[C@H]2/C=C/[C@@H]2OC(C)(C)O[C@H]2/C=C/C[C@H](C)CC(=O)O1      0
40  O=C1N/C(=N\c2nnc(-c3ccc(O)cc3)s2)S/C1=C\c1ccccc1O      0
41                          N#CCCCCCCCCCCC#N      0
